// values below are reported selectivity ratio
# TEST_DESCRIPTION: Selectivity index, ratio of IC50 for hTERT-BJ cells to IC50 for human HepG2 cells
# Format: toxicity
# ASSAY_CONDITIONS: hTERT-BJ cells versus HepG2 cells, read-out: Ratio IC50
ASSAY_ENDPOINT: selectivity ratio

| SMILES_DATA | RESULT |
| --- | --- |
| CCOc1ccc(NC(=O)c2cc3ccc(O)cc3oc2=O)cc1 | > 2.88 |
| CCOc1ccc(NC(=O)c2cc3cc(Br)ccc3oc2=O)cc1 | > 1.35 |
| CCOc1ccc(NC(=O)c2cc3ccccc3oc2=O)cc1 | > 4.83 |
| CCOc1ccc2nc(Cl)c(/C=N/NC(=O)c3cc4cc([N+](=O)[O-])ccc4oc3=O)cc2c1 | > 2.77 |
| CCOc1ccc2nc(Cl)c(/C=N/NC(=O)c3cc4cc(Br)ccc4oc3=O)cc2c1 | > 1.72 |
| Cc1noc(NS(=O)(=O)c2ccc(NC(=O)c3cc4ccc(O)cc4oc3=O)cc2)c1C | > 1.29 |
| Cc1noc(NS(=O)(=O)c2ccc(NC(=O)c3cc4cc(Br)ccc4oc3=O)cc2)c1C | > 5.68 |
| O=C(N/N=C/c1cc2ccccc2nc1Cl)c1cc2cc(Br)ccc2oc1=O | > 5.31 |
| Cc1noc(NS(=O)(=O)c2ccc(NC(=O)c3cc4ccccc4oc3=O)cc2)c1C | > 2.09 |
| O=C(N/N=C/c1cccnc1)c1cc2ccccc2oc1=O | > 3.14 |
| O=C(N/N=C/c1ccncc1)c1cc2cc([N+](=O)[O-])ccc2oc1=O | > 3.15 |
